Origin of values: ChEMBL document CHEMBL5634124

For each of the compounds below, state its CLhep predicted at 0.5 µM.
assay: Metabolic stability in human liver microsomes assessed as hepatic clearance rate at 0.5 uM incubated for 45 mins by LC/MS analysis; format: ADME, Microsome
Give bare numbers, in mL/min/kg.

O=C1Nc2ccccc2/C1=C1/Nc2ccc(C(=O)NCC3CCN(C(=O)CCl)CC3)cc2C1=O; 16.9

Switching to the query record.
Record summary for O=C1Nc2ccccc2/C1=C1/Nc2ccccc2C1=O : reported CLhep predicted at 0.5 µM = 16
